target of assay: T1, wildtype (WT) human interleukin-1β (Homo sapiens, UniProt P01584)
T1 construct: human interleukin-1β (hIL-1β); pET28a vector; also called WT hIL-1β; hIL-1β; source: E. coli BL21 (DE3), purified (Ni-NTA, Superdex 75 SEC)
assay summary: ELISA; phage ELISA; antigen (100 ng) coated on the plate; phages added (pfu titration) in 3% skim milk in DPBST, 2 h at 37 °C
stated conditions: one partner purified

>  <binder>
Q15Kcr-A3 phage (scFv, V domains shown, mouse scFv from the Q15Kcr immunization library; source: E. coli XL1-Blue with M13KO7 (ΔpIII) hyperphage, monoclonal phage, PEG 8000/NaCl precipitated) VH: EVQLQQSGAELVKPGASVKLSCTASGFNIKDTYIHWVKQRPEQGLEWIGRIDPANGNTKYDPKFQGKATIRADTSSNTAYLQLSSLTSEDTAVYYCAIHYYGSFAYWGQGTLVTVSA VL: DILMTQSHKFMSTSVGDRVSITCKASQDVGTAVAWYQQKPGQSPKLLIYWASTRHTGVPDRFTGSGSGTDFTLTISNVQSEDLADYFCQQYSSYPYTFGGGTKLEIK

>  <binding result>
binds

$$$$
>  <binder>
CL-E2 phage (scFv, V domains shown, mouse scFv from the E64AcrK immunization library; also called phage CL-E2; source: E. coli XL1-Blue with M13KO7 (ΔpIII) hyperphage, monoclonal phage, PEG 8000/NaCl precipitated) VH: EVQLKESGAELMKPGASVKISCKATGYTFSSYWIEWVKQRPGHGLEWIGEILPGSGSTNYNEKFKGKATFTADISSNTAYMQLSSLTSEDSAVYYCASGGYRPSMDFWGQGTSVTVSS VL: DIVMTQSQKFMSTSVGDRVSITCKASQNVRTAVAWYQQKPGQSPKALIYLASNRHTGVPDRFTGSGSGTDFTLTITNVQSEDLADYFCLQHWNYPLTFGAGTKLELK

>  <binding result>
binds

$$$$
>  <binder>
Q15Kcr-C7 phage (scFv, V domains shown, mouse scFv from the Q15Kcr immunization library; source: E. coli XL1-Blue with M13KO7 (ΔpIII) hyperphage, monoclonal phage, PEG 8000/NaCl precipitated) VH: EVQQQQSGTELMKPGASVKISCKATGYTFSSYWIEWVKQRPGHGLEWIGEILPGSGSTNYNEKFKGKATFTADTTSNTAYMQLSSLTSEDSAVYYCASGGYRPSMDYWGQGISVTVSS VL: GIELTQSQKFTSTSVGDRVSVTCKASQNVGTNVAWYQQKPGQSPKALIYQASYRYSGVPDRFTGSGSGTDFTLTISNVQSEDLAEYFCQQYNSYPLTFGAGTKLELK

>  <binding result>
binds

$$$$
